- TARGET_UNDER_TEST: Glucagon receptor (Rattus norvegicus)
- Sequence (P30082 whole entry): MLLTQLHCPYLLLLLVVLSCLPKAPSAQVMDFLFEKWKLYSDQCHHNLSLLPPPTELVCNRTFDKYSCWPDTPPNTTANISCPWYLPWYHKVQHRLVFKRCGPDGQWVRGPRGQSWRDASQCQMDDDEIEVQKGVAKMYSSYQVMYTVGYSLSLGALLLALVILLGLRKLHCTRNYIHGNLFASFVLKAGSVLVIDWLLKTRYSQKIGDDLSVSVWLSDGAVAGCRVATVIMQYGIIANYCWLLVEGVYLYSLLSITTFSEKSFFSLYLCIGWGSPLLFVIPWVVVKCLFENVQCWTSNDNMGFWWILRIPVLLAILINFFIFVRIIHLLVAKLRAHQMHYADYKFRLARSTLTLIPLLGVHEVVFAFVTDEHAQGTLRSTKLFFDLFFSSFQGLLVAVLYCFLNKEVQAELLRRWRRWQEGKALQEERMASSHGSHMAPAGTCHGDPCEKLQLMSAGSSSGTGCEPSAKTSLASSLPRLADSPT
- EXPERIMENTAL_DETAILS: Inhibition of glucagon-induced glucagon receptor-mediated cAMP production in rat hepatocytes after 15 mins by cAMP dynamic2 assay
- Type: functional, cell-based, Hepatocyte
VALUE_TYPE: IC50 (nM)
Express the result in nM but write the number alone.

State its IC50: `CCCCCc1ccc(-c2ccoc2C(=O)NNC(=O)c2ccc(O)c([N+](=O)[O-])c2)cc1`
5.3

###

- EXPERIMENTAL_DETAILS: Cmax in rat at 1 mg/kg, po
- Assay type: ADME, organism-based
- Set-up: dose 1 mg/kg, route oral
- EXPERIMENTAL_CONDITIONS: in vivo
VALUE_TYPE: Cmax (ng/mL)
Express the result in ng/mL but write the number alone.

State its Cmax: `CCCCCc1ccc(-c2ccoc2C(=O)NNC(=O)c2ccc(O)c([N+](=O)[O-])c2)cc1`
411

###

- EXPERIMENTAL_DETAILS: Half life in rat at 1 mg/kg, po
- Assay type: ADME, organism-based
- Design: dose 1 mg/kg, route oral
- EXPERIMENTAL_CONDITIONS: in vivo
VALUE_TYPE: half-life (h)
Express the result in h but write the number alone.

State its half-life: `CCCCCc1ccc(-c2ccoc2C(=O)NNC(=O)c2ccc(O)c([N+](=O)[O-])c2)cc1`
6.1

###

- TARGET_UNDER_TEST: Glucagon receptor (Homo sapiens, UniProt P47871)
- Sequence (P47871 whole entry): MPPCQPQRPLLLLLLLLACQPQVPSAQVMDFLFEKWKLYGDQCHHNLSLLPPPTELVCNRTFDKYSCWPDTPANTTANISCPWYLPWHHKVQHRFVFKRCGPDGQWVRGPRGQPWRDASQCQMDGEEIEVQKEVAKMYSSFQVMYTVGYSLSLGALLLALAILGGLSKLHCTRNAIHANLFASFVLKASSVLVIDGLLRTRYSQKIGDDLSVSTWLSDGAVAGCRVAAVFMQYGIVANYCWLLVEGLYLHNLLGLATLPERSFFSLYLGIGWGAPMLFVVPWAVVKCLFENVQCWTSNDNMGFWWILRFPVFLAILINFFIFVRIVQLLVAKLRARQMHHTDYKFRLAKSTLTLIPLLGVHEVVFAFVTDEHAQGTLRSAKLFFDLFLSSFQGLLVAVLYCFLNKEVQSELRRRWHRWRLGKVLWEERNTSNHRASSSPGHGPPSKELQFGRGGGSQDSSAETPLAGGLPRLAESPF
- EXPERIMENTAL_DETAILS: Inhibition of glucagon-induced glucagon receptor-mediated cAMP production in human hepatocytes after 15 mins by cAMP dynamic2 assay
VALUE_TYPE: IC50 (µM)
Express the result in µM but write the number alone.

State its IC50: `CCCCCc1ccc(-c2ccoc2C(=O)NNC(=O)c2ccc(O)c([N+](=O)[O-])c2)cc1`
0.292

###

- TARGET_UNDER_TEST: Glucagon receptor (Rattus norvegicus)
- EXPERIMENTAL_DETAILS: Displacement of [125I]glucagon from glucagon receptor in rat hepatocyte membranes at 10 uM after 30 mins by gamma-counting
- Assay type: cell membranes
VALUE_TYPE: inhibition

State its inhibition: `O=C(NNC(=O)c1occ(-c2ccccc2)c1-c1ccccc1)c1ccco1`
50%

State its inhibition: `O=C(NNC(=O)c1cc(-c2ccccc2)co1)c1ccoc1`
6%

###

- EXPERIMENTAL_DETAILS: Oral bioavailability in rat at 1 mg/kg
- Assay type: ADME, organism-based
- EXPERIMENTAL_CONDITIONS: in vivo
VALUE_TYPE: bioavailability (%)
Express the result in % but write the number alone.

State its bioavailability: `CCCCCc1ccc(-c2ccoc2C(=O)NNC(=O)c2ccc(O)c([N+](=O)[O-])c2)cc1`
37

###

- TARGET_UNDER_TEST: Glucagon receptor (Rattus norvegicus)
- EXPERIMENTAL_DETAILS: Displacement of [125I]glucagon from glucagon receptor in rat hepatocyte membranes after 30 mins by gamma-counting
- Format: cell membranes
As shown below, each of these compounds has a reported pIC50 value.
Here pIC50 is given on a logarithmic scale as minus log10 of the concentration in mol/L.

Consider the following illustrative entries.
O=C(NNC(=O)c1occ(-c2ccccc2)c1-c1ccccc1)c1ccc(O)c(F)c1 ... 5.85
COc1cc(C(=O)NNC(=O)c2occ(-c3ccccc3)c2-c2ccccc2)ccc1O ... 5.02
O=C(NNC(=O)c1occ(-c2ccccc2)c1-c1ccccc1)c1ccc(O)nc1 ... 6.01

State its pIC50: `O=C(NNC(=O)c1occ(-c2ccccc2)c1-c1ccccc1)c1ccc(O)c([N+](=O)[O-])c1`
7.06

State its pIC50: `O=C(NNC(=O)c1occ(-c2ccccc2)c1-c1ccccc1)c1ccc(O)cc1`
5.02

State its pIC50: `O=C(NNC(=O)c1occ(-c2ccccc2)c1-c1ccccc1)c1ccc(O)c(Br)c1`
6.57

State its pIC50: `O=C(NNC(=O)c1occ(-c2ccccc2)c1-c1ccccc1)c1ccc(O)c(Cl)c1`
6.37

###

As shown below, each of these molecules has a reported inhibition value.
- TARGET_UNDER_TEST: Glucagon receptor (Rattus norvegicus)
- EXPERIMENTAL_DETAILS: Displacement of [125I]glucagon from glucagon receptor in rat hepatocyte membranes at 10 uM after 30 mins by gamma-counting
- Type: cell membranes

Consider the following illustrative entries.
O=C(O)c1ccc(C(=O)NNC(=O)c2occ(-c3ccccc3)c2-c2ccccc2)cc1 ... 61%
O=C(NNC(=O)c1occ(-c2ccccc2)c1-c1ccccc1)c1ccc(O)c(O)c1 ... 57%
O=C(NNC(=O)c1occ(-c2ccccc2)c1-c1ccccc1)c1ccccc1 ... 42%
O=C(NNC(=O)c1occ(-c2ccccc2)c1-c1ccccc1)c1ccoc1 ... 73%
O=C(NNC(=O)c1occ(-c2ccccc2)c1-c1ccccc1)c1ccc(O)cc1 ... 65%

State its inhibition: `O=C(NNC(=O)c1occ(-c2ccccc2)c1-c1ccccc1)c1cccc(O)c1`
21%
